As a worked illustration, we turn to IC50 data collected for cPLA2 (Homo sapiens, UniProt P47712).
Enter the number, and then the unit.

Guide cases for IC50, answers given:
INSERT INTO assay_data (compound, parameter, obs_value) VALUES
  ('O=C(O)c1ccc(OCCc2c(CCNS(=O)(=O)c3cccc4nonc34)n(C(c3ccccc3)c3ccccc3)c3ccc(Cl)cc23)cc1 [Example 182]', 'IC50', '600 nM'),
  ('O=C(O)c1ccc(CCCc2c(CCNS(=O)(=O)Cc3ccc(Cl)cc3)n(C(c3ccccc3)c3ccccc3)c3ccc(Cl)cc23)cc1 [Example 60]', 'IC50', '150 nM'),
  ('O=C(O)c1ccc(CCCc2c(CCNS(=O)(=O)c3ccccc3Cl)n(C(c3ccccc3)c3ccccc3)c3ccccc23)cc1 [Example 295]', 'IC50', '550 nM'),
  ('O=C(O)c1ccc(CCCc2c(CCNS(=O)(=O)c3c(Cl)cc(Cl)cc3Cl)n(C(c3ccccc3)c3ccccc3)c3ccc(Cl)cc23)cc1 [Example 154]', 'IC50', '350 nM'),
  ('CCC1CCCCN1CCS(=O)(=O)NCCc1c(CCOc2ccc(C(=O)O)cc2)c2cc(Cl)ccc2n1C(c1ccccc1)c1ccccc1 (centres unmarked) [Example 249]', 'IC50', '670 nM');

Look up and report measured IC50 for this entry: O=C(O)CCc1ccc(S(=O)(=O)CCc2c(CCNS(=O)(=O)Cc3ccccc3)n(C(c3ccccc3)c3ccccc3)c3ccc(Cl)cc23)cc1 [Example 130]
170 nM
